Catalogue of Selectivity Index readings, one per entry.
tested.on: PLK1 PBD (Homo sapiens)
Sequence (P53350 367-603 limits assumed): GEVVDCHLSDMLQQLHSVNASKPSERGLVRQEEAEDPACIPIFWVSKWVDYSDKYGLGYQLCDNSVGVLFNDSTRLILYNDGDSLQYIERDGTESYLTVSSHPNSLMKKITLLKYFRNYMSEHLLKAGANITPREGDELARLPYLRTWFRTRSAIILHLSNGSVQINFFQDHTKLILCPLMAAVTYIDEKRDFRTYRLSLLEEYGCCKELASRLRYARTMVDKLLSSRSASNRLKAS
test: Fluorescence polarization competitive binding assay, PLK1 PBD
condition.label: (IC50 PLK3 PBD/IC50 PLK1 PBD)×5, PLK1 over PLK3
Square brackets hold non-standard residues; d marks the D form. Peptide text beside a SMILES is read from it. pT = C[C@@H](OP(=O)(O)O)[C@H](N)C(=O)O

CC[C@H](C)[C@H](NC(=O)[C@H](C)NC(=O)[C@@H](NC(=O)[C@H](CO)NC(=O)[C@H](Cc1c[nH]cn1)NC(=O)[C@H](CC(C)C)NC(=O)[C@@H]1CCCN1C(C)=O)[C@@H](C)OP(=O)(O)O)C(=O)O [SEQ ID NO: 4, Ac-PLHS[pT]Al] (Ac-PLHS[pT]AI-OH; C-terminus assumed) : 21,133
CCCCCCCCc1ccc(C(=O)N[C@@H](CO)C(=O)N[C@H](C(=O)N[C@@H](C)C(=O)O)[C@@H](C)OP(=O)(O)O)cc1 [Compound 14] : 66

Next compound, Selectivity Index to be filled in.
[Q] Please give the documented Selectivity Index of CC(=O)N1CCC[C@H]1C(=O)N[C@@H](CC(C)C)C(=O)N[C@@H](Cc1c[nH]cn1)C(=O)N[C@@H](CO)C(=O)N[C@H](C(=O)N1CCC[C@H]1C(=O)N[C@@H](CCCCN)C(=O)N[C@@H](CC(N)=O)C(=O)NCC(=O)O)[C@@H](C)OP(=O)(O)O [SEQ ID NO: 9, Ac-PLHS[pT]PKNG] (Ac-PLHS[pT]PKNG-OH; C-terminus assumed)
[A] 20,906
